- assay_method_text: chemical genetic growth profiling, strain panel (AID 1159580);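 note: tested at 20 µM; growth read once vehicle control cultures reached saturation at 30 °C; 1 = growth at the plate median or of vehicle wells; lower values mean less growth of the strain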
- condition_summary: S. cerevisiae deletion strains, growth OD, locus YOL012C, strain htz1
Among all 5,500 compounds or so, about 2,000 (36%) were called active. Not shown: some 18% with an inconclusive outcome. The list shows a part of the results.
Provide the recorded normalized growth for the entries that follow.
One number for each entry.

Consider the reported normalized growth for these compounds:
compound: Cc1ccc(O)c(C(CCN(C(C)C)C(C)C)c2ccccc2)c1 (stereo not given)
normalized growth: 0.768
//
compound: CC[C@H]1OC(=O)[C@H](C)[C@@H](O[C@H]2C[C@@](C)(OC)[C@@H](O)[C@H](C)O2)[C@H](C)[C@@H](O[C@@H]2O[C@H](C)C[C@H](N(C)C)[C@H]2O)[C@](C)(O)C[C@@H](C)/C(=N/OCOCCOC)[C@H](C)[C@@H](O)[C@]1(C)O
normalized growth: 1.11
//
compound: O=C(O)c1cc(O)c2c(c1)C(=O)c1cc(O)cc(O)c1C2=O
normalized growth: 0.738
//
compound: CNC(=O)Oc1cccc2c1OC(C)(C)C2
normalized growth: 0.992

Hi there! I need normalized growth for each item below, if you can.
1. O=C(N[C@@H](CO)[C@H](O)c1ccc([N+](=O)[O-])cc1)C(Cl)Cl
2. CN(C)CCC[C@@]1(c2ccc(F)cc2)OCc2cc(C#N)ccc21
3. O=C1c2cccc(O)c2C(=O)c2c(O)cccc21
4. O=C(O)CCC(=O)OC[C@@H](NC(=O)C(Cl)Cl)[C@H](O)c1ccc([N+](=O)[O-])cc1

Completion:
1. 1.24
2. 1.16
3. 0.695
4. 0.661

Hi there! I need normalized growth for each item below, if you can.
1. COc1ccccc1OCC(O)COC(N)=O (stereo not given)
2. CNC(=O)N(C)c1nnc(C(C)(C)C)s1

Completion:
1: 0.742; 2: 1.29

----------
- assay_method_text: chemical genetic growth profiling, strain panel (AID 1159580);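 note: tested at 20 µM; growth read once vehicle control cultures reached saturation at 30 °C; 1 = growth at the plate median or of vehicle wells; lower values mean less growth of the strain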
- condition_summary: S. cerevisiae deletion strains, growth OD, locus YML094W, strain GIM5, hits give low values
The campaign covered roughly 5,500 compounds. About 2,000 (36%) were called active. Inconclusive results (about 18%) are left out. Some of the results follow.
reported_property: normalized growth

Consider the reported normalized growth for these molecules:
molecule: O=C(CSCc1c(Cl)cccc1Cl)NNC(=S)NC1CC2C=CC1C2 (configuration not stated)
normalized growth: 0.827 (active)
//
molecule: Cc1nc(C(F)(F)F)nc(Sc2n[nH]c(-c3cc(Cl)cc(Cl)c3)n2)c1C
normalized growth: 0.994 (inactive)
//
molecule: FC(F)(F)c1cc(-c2ccc(Cl)cc2)nc2cc(C3CC3)nn12
normalized growth: 1.02 (inactive)
//
molecule: COc1ccc(Oc2ccc(C(F)(F)F)cc2[N+](=O)[O-])cc1
normalized growth: 1.06 (inactive)
//
molecule: FC(F)(F)c1cc(-c2ccco2)nc2cc(-c3ccco3)nn12
normalized growth: 0.889 (inactive)

Hi there! I need normalized growth for each item below, if you can.
1. O=C(NNC(=S)NC1CC2C=CC1C2)c1cccnc1 (configuration not stated)
2. COc1ccccc1C1CCN(c2ncnc3scc(-c4ccccc4)c23)CC1
3. COc1cc2ncnc(Nc3cccc(Cl)c3)c2cc1OC
4. O=[N+]([O-])c1cc(C(F)(F)F)ccc1Sc1ccc(Cl)cc1

Completion:
["0.962 (inactive)", "0.992 (inactive)", "0.828 (active)", "0.97 (inactive)"]

Hi there! I need normalized growth for each item below, if you can.
1. Cc1ccc(S(=O)(=O)N2CCN(CCOc3ccccc3)CC2)cc1
2. CC(=O)OCCCCN1C(=O)c2ccccc2C1=O
3. O=[N+]([O-])c1cc(C(F)(F)F)ccc1Oc1cc(C(F)(F)F)cc(C(F)(F)F)c1

Completion:
["0.944 (inactive)", "1.05 (inactive)", "1.12 (inactive)"]

Hi there! I need normalized growth for each item below, if you can.
1. O=C1NCCN=C(c2ccccc2)c2ccccc21
2. CCCc1ccc(/C(C)=N\O)cc1
3. COC(=O)c1cccc([N+](=O)[O-])c1-c1c(C(=O)OC)cccc1[N+](=O)[O-]

Completion:
["0.98 (inactive)", "0.947 (inactive)", "0.988 (inactive)"]

Hi there! I need normalized growth for each item below, if you can.
1. C=CC1CN2CCC1CC2C(OC(C)=O)c1ccnc2ccc(OC)cc12 (configuration not stated)
2. COc1ccc(/C=C2/C(=O)N(c3cccc(Cl)c3)N=C2C)cc1
3. Nc1nc(Sc2ccc(C(F)(F)F)cc2[N+](=O)[O-])n[nH]1

Completion:
["0.997 (inactive)", "0.865 (active)", "0.995 (inactive)"]

Hi there! I need normalized growth for each item below, if you can.
1. O=C1CSC(c2cccnc2)N1c1ccc(C2CCCCC2)cc1 (configuration not stated)
2. Cc1ccc(S(=O)(=O)N2CCC(C(c3ccccc3)c3ccccc3)CC2)cc1

Completion:
1: 1.07 (inactive); 2: 1 (inactive)

Hi there! I need normalized growth for each item below, if you can.
1. CCOC(=O)CCC(C#N)(c1ccc(Cl)cc1)N1CCOCC1 (configuration not stated)
2. O=C(OCCNc1ccc([N+](=O)[O-])cn1)c1ccc([N+](=O)[O-])o1

Completion:
1. 0.99 (inactive)
2. 0.896 (inactive)

Hi there! I need normalized growth for each item below, if you can.
1. O=[N+]([O-])c1cc(Cl)c(Sc2ccccc2)cc1Sc1ccccc1
2. CC1CN=C(NC2CCCCC2)S1 (configuration not stated)
3. COc1c([N+](=O)[O-])cc(C(F)(F)F)cc1[N+](=O)[O-]
4. COc1ccc(CCNC(=O)c2ccccc2Cl)cc1OC
5. CCCc1ccc(-c2nc(-c3ccc(C)cc3)no2)cc1
6. COC(=O)C(Cc1c[nH]c2ccccc12)NC(=O)c1c(Cl)cccc1Cl (configuration not stated)

Completion:
1.03 (inactive)
1 (inactive)
0.903 (inactive)
0.993 (inactive)
0.988 (inactive)
1 (inactive)

Hi there! I need normalized growth for each item below, if you can.
1. N=C(N)SCc1c(F)cccc1Cl
2. O=C(Cc1ccccc1)NC1CCN(S(=O)(=O)c2ccc(Cl)cc2)CC1
3. Nc1ccccc1C(=O)NCCc1ccc(Cl)cc1
4. Cn1nccc1NS(=O)(=O)c1ccc(C(C)(C)C)cc1
5. Cc1cc(NS(=O)(=O)c2ccc(NC(=O)c3ccccc3)cc2)no1

Completion:
0.935 (inactive)
1 (inactive)
0.938 (inactive)
1.03 (inactive)
1.02 (inactive)

----------
- assay_method_text: chemical genetic growth profiling, strain panel (AID 1159580);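 note: tested at 20 µM; growth read once vehicle control cultures reached saturation at 30 °C; 1 = growth at the plate median or of vehicle wells; lower values mean less growth of the strain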
- condition_summary: S. cerevisiae deletion strains, growth OD, locus YMR277W, strain FCP1, hits give low values
Out of some 5,500 compounds screened, about 2,000 (36%) were called active. Not shown: some 18% with an inconclusive outcome. Some of the results follow.
Provide the recorded normalized growth for the entries that follow.
Give bare numbers.

Consider the reported normalized growth for these compounds:
smiles_string: COC(=O)c1cc(I)c(OC(C)=O)c(I)c1
reported_property: normalized growth
test_result: 0.948

smiles_string: CC(C)Sc1c(Cl)cccc1NC(=O)Nc1cccc(C(F)(F)F)c1
reported_property: normalized growth
test_result: 0.973

smiles_string: COc1ccc(OC)c2nc3c(nc12)C(=O)c1ccccc1-3
reported_property: normalized growth
test_result: 0.976

smiles_string: Cc1ccc2nc3c(nc2c1)-c1ccccc1C3=O
reported_property: normalized growth
test_result: 0.922

smiles_string: O=[N+]([O-])c1ccc(NCc2ccc(Cl)c(Cl)c2)nc1
reported_property: normalized growth
test_result: 0.932

smiles_string: S=C(NCCc1csc2ccccc12)Nc1ccc(Cl)cc1
reported_property: normalized growth
test_result: 0.941

smiles_string: O=C1c2ccccc2C(=O)c2sccc21
reported_property: normalized growth
test_result: 0.46

smiles_string: Cc1csc2ncnc(N3CCN(C(=O)Nc4ccc(SC(F)(F)F)cc4)CC3)c12
reported_property: normalized growth
test_result: 1

smiles_string: FC(F)(F)c1c2c(nc3cc(-c4ccco4)nn13)CCC2
reported_property: normalized growth
test_result: 0.963

smiles_string: CC(C)Sc1c(Cl)cccc1NC(=O)Nc1ccccc1
reported_property: normalized growth
test_result: 0.962

Hi there! I need normalized growth for each item below, if you can.
1. S=C(NCc1cccs1)Nc1cc(Cl)cc(Cl)c1
2. Cc1cc(C)c2cc(C(=O)NCCNc3ccc(C(F)(F)F)cn3)[nH]c2c1
3. COC(=O)c1cccc(NS(=O)(=O)c2ccc(Cl)c(Cl)c2)c1
4. O=S(=O)(Nc1c(F)cccc1F)c1ccc(Cl)c(Cl)c1

Completion:
1. 0.934
2. 0.992
3. 0.973
4. 0.936

----------
- assay_method_text: chemical genetic growth profiling, strain panel (AID 1159580);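 note: tested at 20 µM; growth read once vehicle control cultures reached saturation at 30 °C; 1 = growth at the plate median or of vehicle wells; lower values mean less growth of the strain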
- condition_summary: S. cerevisiae deletion strains, growth OD, locus YLR113W, strain HOG1, hits give low values
Screen size: about 5,500 compounds; about 2,000 (36%) were called active. About 18% were inconclusive and are not listed. The list shows a part of the results.
Provide the recorded normalized growth for the entries that follow.

compound: COc1cc([C@@H]2c3cc4c(cc3[C@H](O)[C@H]3COC(=O)[C@H]23)OCO4)cc(OC)c1OC
normalized growth: 0.924 (inactive)

compound: Oc1cc2c(cc1O)C(c1ccccc1)CNCC2 (stereo unspecified)
normalized growth: 0.979 (inactive)

compound: COc1cc(OC)c2c(OC)c(-c3ccc4c(c3)OCO4)c(=O)oc2c1
normalized growth: 0.917 (inactive)

compound: COc1ccc(-c2c(O)c3c(OC)c4c(cc3oc2=O)OC(C)(C)C=C4)cc1
normalized growth: 0.907 (inactive)

compound: FC(F)(F)c1c2c(nc3cc(-c4ccco4)nn13)CCC2
normalized growth: 0.802 (active)

Alright, here's another compound for you.
normalized growth measured on `O=c1c(O)c(-c2ccccc2)oc2cccc(O)c12` = 0.935 (inactive)
